Readings of melting point for the listed molecules

Use the examples below as a reference point.
molecule | melting point
CNC(=S)c1ncnn1Cc1ccc(-c2noc(C(F)(F)F)n2)s1 | 86 to 95 °C
COCC(=S)NCc1cnn(Cc2ccc(-c3noc(C(F)(F)F)n3)s2)c1 | 135.5 to 140.3 °C
NC(=S)c1nccn1Cc1ccc(-c2noc(C(F)(F)F)n2)s1 | 170 to 172 °C
CNC(=S)c1ccnn1Cc1ccc(-c2noc(C(F)(F)F)n2)cc1 | 159 to 164 °C
CN(C)C(=S)c1ncn(Cc2ccc(-c3noc(C(F)(F)F)n3)s2)n1 | 112 to 118 °C
CNC(=S)c1ccn(Cc2ccc(-c3noc(C(F)(F)F)n3)s2)n1 | 118 to 122 °C

# lookup: melting point of FC(F)(F)c1nc(-c2ccc(Cn3cc(CNC(=S)C4CC4)cn3)s2)no1 165.5 to 167 °C

# lookup: melting point of CC(c1ccc(-c2noc(C(F)(F)F)n2)s1)n1cc(C(=S)N2CCC2)cn1 (centres unmarked) 75 to 83 °C
